FYI, the data here is from ChEMBL document CHEMBL3352223.

Test system: MDA-MB-231
Experiment: Antiproliferative activity against human MDA-MB-231 cells after 72 hrs by Alamar blue/spectrophotometric analysis
Format: functional, cell-based
Settings: MDA-MB-231, 72 h
pIC50: −log10 of the molar value.
Response key: 1.0 means pIC50 >= 4; 0.0 means pIC50 < 4.

Tell me whether pIC50 is at least 4 here: Cc1ccc(C(=O)CC2Oc3cc(O)ccc3C=C2c2ccc(O)cc2)cc1 (stereo not drawn)
1.0

Continue with O=C(CC1Oc2cc(O)ccc2C=C1c1ccc(O)cc1)c1ccc(Cl)cc1 (stereo not drawn)
0.0

Continue with C/C(CC1Oc2cc(O)ccc2C=C1c1ccc(O)cc1)=N\Nc1ccc([N+](=O)[O-])cc1[N+](=O)[O-] (stereo not drawn)
1.0

Continue with CCc1ccc(C(=O)CC2Oc3cc(O)ccc3C=C2c2ccc(O)cc2)cc1 (stereo not drawn)
0.0

Continue with Cc1cc(C2Oc3cc(O)ccc3C=C2c2ccc(O)cc2)cc(C)c1N (stereo not drawn)
1.0

Continue with COc1ccc(C(=O)CC2Oc3cc(O)ccc3C=C2c2ccc(O)cc2)cc1 (stereo not drawn)
1.0

Continue with COc1ccc(C2=C(c3ccc(O)cc3)C(CC(C)=O)Oc3cc(O)ccc32)cc1 (stereo not drawn)
1.0

Continue with O=C(CC1Oc2cc(O)ccc2C=C1c1ccc(O)cc1)c1ccc(Br)cc1 (stereo not drawn)
1.0

Continue with CC(=O)CC1Oc2cc(O)ccc2C=C1c1ccc(O)cc1 (stereo not drawn)
0.0

Continue with CC(C)CC(=O)CC1Oc2cc(O)ccc2C=C1c1ccc(O)cc1 (stereo not drawn)
1.0

Continue with Oc1ccc(C2=Cc3ccc(O)cc3OC2)cc1 [IDRONOXIL]
1.0
